Test system: M14 melanoma
test_protocol: NCI tumour cell line growth inhibition, 48 h
For each entry below, report its TGI value.

Provide reported TGI for each item, in the same order as listed.
1. COc1cc(C(O)CCBr)c(OC)cc1C (centres undefined)
2. NC(=O)C(=O)N/N=C1\C(=O)N(c2ccc(Cl)cc2Cl)C(=O)C1C(=O)Nc1ccc(Cl)cc1Cl (centres undefined)

1. 33.9 µM
2. > 100 µM

Provide reported TGI for each item, in the same order as listed.
1. O=NN1C(c2ccccc2)CC(=NO)CC1c1ccccc1 (centres undefined)
2. COc1ccc(-c2cc3c(c4cc(OC)ccc24)C(=O)OC3=O)cc1

> 100 µM
> 100 µM
